Listed below are compounds with pIC50 for Epidermal growth factor receptor (Homo sapiens, UniProt P00533), each taken from published literature.
pIC50: −log10 of the molar value.
measured_attribute: pIC50

> print(dat)
                            chemical.smiles    meas.value
1  C=CC(=O)Nc1cccc(Nc2nc(Nc3ccc(N4CCS(=O)(=O)CC4)cc3OC)ncc2C(F)(F)F)c1  8.00 to 9.00
2  CC(C)c1ccnc(NC(=O)c2ccc(-c3nn([C@@H]4CCN(C(=O)/C=C/CN(C)C5CC5)C4)c4ncnc(N)c34)cc2)c1  5.00 to 6.00
3  CCN(CC)CCN1CCc2[nH]c(/C=C3\C(=O)Nc4cccc(-c5cccc(Cl)c5F)c43)c(C)c2C1=O          6.74
4  CCc1cc(Nc2ncc(Br)c(Nc3ccc(-c4cnn(C)n4)cc3P(C)(C)=O)n2)c(OC)cc1N1CCC(N2CCOCC2)CC1          7.61
5  C=CC(=O)Nc1cc(-c2c(-c3ccc(CCN(C)C)cc3)[nH]c3nccc(Cl)c23)ccc1C        ≥ 7.00
6  C=CC(=O)Nc1cccc(Nc2nc(Nc3ccc4c(c3)OC[C@H]3CNCCN43)ncc2C(F)(F)F)c1        > 7.30
7  C=CC(=O)Nc1cc(Nc2ncc3cccc(Cl)c3n2)ccc1N(C)CCN(C)C        < 7.00
